In this section we review reported pKi values for a set of compounds.
# target-desc: UniProt:P29990
# Sequence (P29990 2492-2758): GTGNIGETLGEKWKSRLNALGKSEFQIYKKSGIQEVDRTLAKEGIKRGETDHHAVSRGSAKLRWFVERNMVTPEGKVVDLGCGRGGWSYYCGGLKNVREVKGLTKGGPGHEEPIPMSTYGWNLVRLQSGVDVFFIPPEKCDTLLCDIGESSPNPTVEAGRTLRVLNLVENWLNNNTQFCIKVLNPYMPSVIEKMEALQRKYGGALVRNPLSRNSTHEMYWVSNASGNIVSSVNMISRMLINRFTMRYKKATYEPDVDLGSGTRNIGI
# method-description: biochemical
# Format: binding, dengue virus type 2 (strain 16681)
# run-conditions: read-out: FP_DEN_Ki_AVG_DEN_M
Worth noting: pKi values are minus log10 of concentrations stated in mol/L.

CC(C)N1C(=O)SC(=Cc2ccccc2OCc2ccc(C(=O)O)cc2)C1=O = 5.15
O=C(O)CN1C(=O)C(=Cc2cccc(Cl)c2Cl)SC1=S = 4.57
O=C(O)CCN1C(=O)/C(=C/c2ccc(-c3ccc(Cl)c(Cl)c3)o2)SC1=S = 5.70
CCOc1ccc(N2C(=O)C(=Cc3ccccc3C(=O)O)SC2=S)cc1 = 4.77
O=C(O)CCN1C(=O)C(=Cc2ccc(-c3ccccc3[N+](=O)[O-])o2)SC1=S = 5.30
O=C(O)C(Cc1ccccc1)N1C(=O)C(=CC=Cc2ccccc2)SC1=S (stereo not drawn) = 5.52
O=C(O)CCN1C(=O)C(=Cc2ccc(Cl)c(Cl)c2)SC1=S = 4.85
CCc1ccc(C=C2SC(=O)NC2=O)cc1 = 4.70

Shift focus to the following entry.
For this compound ( "O=C1NC(=S)SC1=Cc1ccccc1OS(=O)(=O)c1ccc([N+](=O)[O-])cc1" ), measured pKi is 5.30

* * *

# method-description: Cell viability (CellTiter-Glo) in replicon assay
# run-conditions: hamster, BHK-pD2hRucPac cells (dengue replicon cells), Replicon Assay_CC50_M, Table 2-1
property: CC50 at 72 h (µM)
// units = µM; emit number, no label

CC(C)(C)c1ccc(/C=C2/SC(=S)N(CCC(=O)O)C2=O)cc1 = 184
O=C(O)CCN1C(=O)/C(=C/c2cccc(Cl)c2Cl)SC1=S = 12

Shift focus to the following entry.
For this molecule ( "O=C(O)CCN1C(=O)/C(=C/c2ccc(Cl)cc2Cl)SC1=S" ), measured CC50 at 72 h is 11

* * *

# target-desc: yellow fever virus capping enzyme (Yellow fever virus, UniProt P03314)
# Sequence (P03314 2507-2774 limits assumed): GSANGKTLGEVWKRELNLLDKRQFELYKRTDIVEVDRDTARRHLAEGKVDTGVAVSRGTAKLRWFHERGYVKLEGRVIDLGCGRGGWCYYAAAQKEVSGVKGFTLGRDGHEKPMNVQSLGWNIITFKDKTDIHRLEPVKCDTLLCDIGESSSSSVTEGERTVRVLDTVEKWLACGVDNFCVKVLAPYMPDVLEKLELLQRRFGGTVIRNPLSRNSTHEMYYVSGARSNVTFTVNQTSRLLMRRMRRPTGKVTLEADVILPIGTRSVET
# method-description: biochemical
# Assay type: binding, yellow fever virus (strain 17D)
# run-conditions: FP_YF_KI_AVG_YF_M
In this section we review reported Ki values for a set of compounds.
Quick note: number first, unit second.

Recorded Ki, per entry:
O=C(O)CCN1C(=O)/C(=C/c2ccc(Cl)cc2Cl)SC1=S = 9 µM
O=C(O)CCN1C(=O)/C(=C/c2cccc(Cl)c2Cl)SC1=S = 16 µM

Shift focus to the following entry.
For this compound ( "CC(C)(C)c1ccc(/C=C2/SC(=S)N(CCC(=O)O)C2=O)cc1" ), measured Ki is 9.5 µM

* * *

In this section we review reported pKi values for a set of compounds.
# target-desc: yellow fever virus capping enzyme (Yellow fever virus)
# method-description: biochemical
# Format: binding, yellow fever virus (strain 17D)
# run-conditions: read-out: FP_YF_KI_AVG_YF_M
Worth noting: pKi values are minus log10 of concentrations stated in mol/L.

O=C(O)C(Cc1ccccc1)N1C(=O)C(=CC=Cc2ccccc2)SC1=S (centres unmarked) = 5.40
O=C(O)CN1C(=O)/C(=C/c2ccc(Cl)c(Cl)c2)SC1=S = 4.80
O=C(CCN1C(=O)C(=Cc2ccc(Cl)cc2)SC1=S)Nc1cccc(C(=O)O)c1 = 5.30

Shift focus to the following entry.
With yellow fever virus capping enzyme (Yellow fever virus) as the test system, "CC(C)(C)c1cc(C=C2SC(=S)NC2=O)cc(C(C)(C)C)c1O" showed pKi of 6.00
